Target: T1, human epidermal growth factor receptor antigen (human, UniProt P00533 25-645, limits assumed)
T1 construct: whole entry named; also called EGFR
Assay: SPR (Biacore T200), 37 C, scFv-Fc, 0 uM MTX
measured quantity: Kd (nM)
Just the number please, in nM, no unit attached.

Specify measured Kd for P14_E03 scFv-Fc fusion (scFv, V domains shown, Tested as scFv-Fc fusion) VH: QVQLVESGGGLVQAGGSLRLSCAASRRSSRSWAMHWVRQAPGKGLEWVAVISYDGRLKYYADSVKGRFTISRDNAEYLVYLQMNSLRAEDTAVYYCAAAPRVDWSDVSSGIDYWGQGTLVTVSS VL: QSVLTQPPSASGTPGQRVTISCSGSISNIGTNNVYWYQQLPGTAPKLLIYRNNQRPSGVPDRFSGSKSGTSASLAISGLRSEDEADYYCSAWDDSLSGVVFGTGTKLTVL .
6.3
